Test: Antioxidant activity assessed as superoxide anion radical scavenging activity after 20 mins by xanthine/xanthine oxidase method
Type: physicochemical
pIC50: −log10 of the molar value.
reportedEndpoint: pIC50

Sample CCN(CC)CCOc1cc(O)cc2oc(-c3ccc(O)c(O)c3)c(OC)c(=O)c12 ; pIC50 observed: 5.19

The reported value for COc1c(-c2cc(O)c(O)c(O)c2)oc2cc(OCCN3CCCC3)cc(O)c2c1=O in terms of pIC50 is < 4.00

// pIC50 lookup, compound = COc1c(-c2cc(O)c(O)c(O)c2)oc2cc(O)cc(OCCN3CCOCC3)c2c1=O , result: < 4.00

Reported pIC50 ( COc1c(-c2cc(O)c(O)c(O)c2)oc2cc(O)cc(OCCN3CCCC3)c2c1=O ) = < 4.00

Form field pIC50, entry COc1c(-c2cc(O)c(O)c(O)c2)oc2cc(OCCN3CCOCC3)cc(O)c2c1=O : < 4.00

Sample O=C1O[C@H]([C@@H](O)CO)C(O)=C1O [ASCORBIC ACID] ; pIC50 observed: < 4.30

Looking up COc1c(-c2ccc(O)c(O)c2)oc2cc(O)cc(O)c2c1=O [3-O-METHYLQUERCETIN] , I found its pIC50 recorded as 4.76

Item: CCN(CC)CCOc1cc(O)c2c(=O)c(OC)c(-c3cc(O)c(O)c(O)c3)oc2c1.Cl | pIC50: < 4.00

Per the records, this compound ( COc1c(-c2ccc(O)c(O)c2)oc2cc(OCCN3CCCC3)cc(O)c2c1=O ) has pIC50 equal to 4.94
